Test Target: T1, S. cerevisiae Nrd1 CID1-152 (S. cerevisiae, UniProt P53617 1-152)
T1 chain: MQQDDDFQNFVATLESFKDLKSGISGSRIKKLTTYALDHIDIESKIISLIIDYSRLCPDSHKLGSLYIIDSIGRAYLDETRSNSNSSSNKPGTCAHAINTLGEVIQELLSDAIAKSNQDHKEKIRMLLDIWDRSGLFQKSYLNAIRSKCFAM
Assay Details: FP
No end group written: not given here. FAM = 5'-fluorescein amidite

Binder	Kd (µM)
{FAM}-YSPTSPSYSPTSPS (also: phospho-Ser2 of heptad, which repeat not given here) [FAM-labeled two-repeat CTD peptide, Ser2P]	126

Reference source: paper PMC6180485
